Each entry below carries its reported GI50.
- Test system: COLO 205
- Measurement Notes: Cytotoxicity against human COLO205 cells after 48 hrs by sulforhodamine B assay
- Type: functional
- Condition Info: COLO 205, 48 h
Measured Attribute: GI50 (nM)

>  <Record Smiles>
CCN(CC)c1ccc(/C=N/NC(=O)c2cccc(Nc3ccnc(C(F)(F)F)c3)c2)c(O)c1

>  <Value Reported>
282

$$$$
>  <Record Smiles>
CCN(CC)c1ccc(/C=N/NC(=O)c2ccccc2Nc2ccnc(C(F)(F)F)c2)c(O)c1

>  <Value Reported>
174

$$$$
>  <Record Smiles>
CCN(CC)c1ccc(/C=N/NC(=O)c2ccc(Nc3ccnc(C(F)(F)F)c3)cc2)c(O)c1

>  <Value Reported>
275

$$$$
>  <Record Smiles>
CCN(CC)c1ccc(/C=N/NC(=O)Cc2ccc(Nc3ccnc(C(F)(F)F)c3)cc2)c(O)c1

>  <Value Reported>
437

$$$$

###

Each entry below carries its reported GI50.
- System: HCC 2998
- Measurement Notes: Cytotoxicity against human HCC2998 cells after 48 hrs by sulforhodamine B assay
- Format: functional
- Condition Info: HCC 2998, 48 h

>  <Record Smiles>
CCN(CC)c1ccc(/C=N/NC(=O)c2cccc(Nc3ccnc(C(F)(F)F)c3)c2)c(O)c1

>  <GI50, nM>
182

$$$$
>  <Record Smiles>
CCN(CC)c1ccc(/C=N/NC(=O)c2ccccc2Nc2ccnc(C(F)(F)F)c2)c(O)c1

>  <GI50, nM>
191

$$$$
>  <Record Smiles>
CCN(CC)c1ccc(/C=N/NC(=O)c2ccc(Nc3ccnc(C(F)(F)F)c3)cc2)c(O)c1

>  <GI50, nM>
224

$$$$
>  <Record Smiles>
CCN(CC)c1ccc(/C=N/NC(=O)Cc2ccc(Nc3ccnc(C(F)(F)F)c3)cc2)c(O)c1

>  <GI50, nM>
646

$$$$

###

- Measurement Notes: Cytotoxicity against human Hs 578T cells after 48 hrs by sulforhodamine B assay
- Format: functional

>  <Record Smiles>
CCN(CC)c1ccc(/C=N/NC(=O)Cc2ccc(Nc3ccnc(C(F)(F)F)c3)cc2)c(O)c1

>  <Readout Units>
nM

>  <GI50>
2190

$$$$
>  <Record Smiles>
CCN(CC)c1ccc(/C=N/NC(=O)c2ccccc2Nc2ccnc(C(F)(F)F)c2)c(O)c1

>  <Readout Units>
nM

>  <GI50>
871

$$$$
>  <Record Smiles>
CCN(CC)c1ccc(/C=N/NC(=O)c2ccc(Nc3ccnc(C(F)(F)F)c3)cc2)c(O)c1

>  <Readout Units>
nM

>  <GI50>
219

$$$$
>  <Record Smiles>
CCN(CC)c1ccc(/C=N/NC(=O)c2cccc(Nc3ccnc(C(F)(F)F)c3)c2)c(O)c1

>  <Readout Units>
nM

>  <GI50>
182

$$$$

###

Each entry below carries its reported GI50.
- System: A498
- Measurement Notes: Cytotoxicity against human A498 cells after 48 hrs by sulforhodamine B assay
- Format: functional
- Condition Info: A498, 48 h

>  <Record Smiles>
CCN(CC)c1ccc(/C=N/NC(=O)c2ccccc2Nc2ccnc(C(F)(F)F)c2)c(O)c1

>  <GI50, nM>
178

$$$$
>  <Record Smiles>
CCN(CC)c1ccc(/C=N/NC(=O)c2cccc(Nc3ccnc(C(F)(F)F)c3)c2)c(O)c1

>  <GI50, nM>
479

$$$$
>  <Record Smiles>
CCN(CC)c1ccc(/C=N/NC(=O)Cc2ccc(Nc3ccnc(C(F)(F)F)c3)cc2)c(O)c1

>  <GI50, nM>
5010

$$$$
>  <Record Smiles>
CCN(CC)c1ccc(/C=N/NC(=O)c2ccc(Nc3ccnc(C(F)(F)F)c3)cc2)c(O)c1

>  <GI50, nM>
316

$$$$

###

- Tested on: SF-295
- Measurement Notes: Cytotoxicity against human SF295 cells after 48 hrs by sulforhodamine B assay
- Format: functional
- Condition Info: SF-295, 48 h
Returns: string. Value is fulfilled if measured GI50 is below 0.5 µM, and not fulfilled if it is greater than or equal to it.

>  <Record Smiles>
COc1ccc(C(=O)N/N=C/c2ccc(O)cc2O)cc1Nc1ccnc(C(F)(F)F)c1

>  <Target Or Test System>
SF-295

>  <Category Label>
not fulfilled

$$$$
>  <Record Smiles>
CCOc1cccc(/C=N/NC(=O)Cc2ccc(Nc3ccnc(C(F)(F)F)c3)cc2)c1O

>  <Target Or Test System>
SF-295

>  <Category Label>
not fulfilled

$$$$
>  <Record Smiles>
CCOc1cccc(/C=N/NC(=O)c2ccc(Nc3ccnc(C(F)(F)F)c3)cc2)c1O

>  <Target Or Test System>
SF-295

>  <Category Label>
not fulfilled

$$$$
>  <Record Smiles>
CCN(CC)c1ccc(/C=N/NC(=O)c2ccc(Nc3ccnc(C(F)(F)F)c3)cc2)c(O)c1

>  <Target Or Test System>
SF-295

>  <Category Label>
fulfilled

$$$$

###

- Tested on: SF-295
- Measurement Notes: Cytotoxicity against human SF295 cells after 48 hrs by sulforhodamine B assay
- Type: functional
- Condition Info: SF-295, 48 h
Measured Attribute: log10 GI50 (log10 of the value in nM)

>  <Record Smiles>
CCN(CC)c1ccc(/C=N/NC(=O)c2ccccc2Nc2ccnc(C(F)(F)F)c2)c(O)c1

>  <Measured Attribute>
log10 GI50

>  <Value Reported>
2.40

$$$$
>  <Record Smiles>
CCN(CC)c1ccc(/C=N/NC(=O)c2cccc(Nc3ccnc(C(F)(F)F)c3)c2)c(O)c1

>  <Measured Attribute>
log10 GI50

>  <Value Reported>
2.51

$$$$
>  <Record Smiles>
CCOc1cccc(/C=N/NC(=O)c2ccccc2Nc2ccnc(C(F)(F)F)c2)c1O

>  <Measured Attribute>
log10 GI50

>  <Value Reported>
2.70

$$$$
>  <Record Smiles>
O=C(Cc1ccc(Nc2ccnc(C(F)(F)F)c2)cc1)N/N=C/c1ccccc1O

>  <Measured Attribute>
log10 GI50

>  <Value Reported>
3.40

$$$$
>  <Record Smiles>
O=C(N/N=C/c1cc(Cl)ccc1O)c1ccccc1Nc1ccnc(C(F)(F)F)c1

>  <Measured Attribute>
log10 GI50

>  <Value Reported>
2.60

$$$$
>  <Record Smiles>
CCOc1cccc(/C=N/NC(=O)c2cccc(Nc3ccnc(C(F)(F)F)c3)c2)c1O

>  <Measured Attribute>
log10 GI50

>  <Value Reported>
3.30

$$$$
>  <Record Smiles>
O=C(N/N=C/c1ccc(O)cc1O)c1cccc(Nc2ccnc(C(F)(F)F)c2)c1

>  <Measured Attribute>
log10 GI50

>  <Value Reported>
3.30

$$$$
>  <Record Smiles>
O=C(N/N=C/c1ccc(O)cc1O)c1ccc(Nc2ccnc(C(F)(F)F)c2)cc1

>  <Measured Attribute>
log10 GI50

>  <Value Reported>
1.00

$$$$
>  <Record Smiles>
COc1cccc(/C=N/NC(=O)c2ccccc2Nc2ccnc(C(F)(F)F)c2)c1O

>  <Measured Attribute>
log10 GI50

>  <Value Reported>
2.60

$$$$

###

- Tested on: SF-539
- Measurement Notes: Cytotoxicity against human SF539 cells after 48 hrs by sulforhodamine B assay
- Format: functional
- Condition Info: SF-539, 48 h

>  <Record Smiles>
CCN(CC)c1ccc(/C=N/NC(=O)c2ccc(Nc3ccnc(C(F)(F)F)c3)cc2)c(O)c1

>  <GI50, nM>
200

$$$$
>  <Record Smiles>
CCN(CC)c1ccc(/C=N/NC(=O)c2cccc(Nc3ccnc(C(F)(F)F)c3)c2)c(O)c1

>  <GI50, nM>
263

$$$$
>  <Record Smiles>
CCN(CC)c1ccc(/C=N/NC(=O)Cc2ccc(Nc3ccnc(C(F)(F)F)c3)cc2)c(O)c1

>  <GI50, nM>
479

$$$$
>  <Record Smiles>
CCN(CC)c1ccc(/C=N/NC(=O)c2ccccc2Nc2ccnc(C(F)(F)F)c2)c(O)c1

>  <GI50, nM>
245

$$$$

###

- System: NCI-H226
- Measurement Notes: Cytotoxicity against human NCI-H226 cells after 48 hrs by sulforhodamine B assay
- Type: functional
- Condition Info: NCI-H226, 48 h
Each entry below carries its reported GI50.

>  <Record Smiles>
CCN(CC)c1ccc(/C=N/NC(=O)c2cccc(Nc3ccnc(C(F)(F)F)c3)c2)c(O)c1

>  <Readout Units>
µM

>  <GI50>
0.372

$$$$
>  <Record Smiles>
CCN(CC)c1ccc(/C=N/NC(=O)c2ccccc2Nc2ccnc(C(F)(F)F)c2)c(O)c1

>  <Readout Units>
µM

>  <GI50>
0.151

$$$$
>  <Record Smiles>
CCN(CC)c1ccc(/C=N/NC(=O)c2ccc(Nc3ccnc(C(F)(F)F)c3)cc2)c(O)c1

>  <Readout Units>
µM

>  <GI50>
0.331

$$$$
>  <Record Smiles>
CCN(CC)c1ccc(/C=N/NC(=O)Cc2ccc(Nc3ccnc(C(F)(F)F)c3)cc2)c(O)c1

>  <Readout Units>
µM

>  <GI50>
0.676

$$$$

Reference source for all entries: ChEMBL document CHEMBL2440080
